Tested on: ENR+CD organoids (ISC to Paneth cell differentiation)
Test: Primary screen: basal (non-stimulated) lysozyme secretion LYZ.NS, 2.5-D 384-well ENR+CD organoid differentiation
Format: cell-based, mouse
Conditions: primary screen, dose 0.08 uM
Would you mind telling me the reported Dose.FC.LYZ.NS of each entry?
Answers are plain numbers, in log2 fold change.

Check out these entries, answers already filled in.
compound	reported
CN(C)Cc1ccc(-c2nc3cccc4c3n2CCNC4=O)cc1	0.152
CC(C)n1c(/C=C/C(O)CC(O)CC(=O)O)c(-c2ccc(F)cc2)c2ccccc21 (centres unmarked) [Fluvastatin Sodium]	0.112

Working through the 5 compounds below one at a time, give Dose.FC.LYZ.NS for each.
1. O=C(N/N=C/c1ccc(O)c(O)c1)c1cc2ccccc2cc1O
2. NC(=O)Nc1cc(-c2cccc(F)c2)sc1C(=O)N[C@H]1CCCNC1
3. CCOc1ccccc1-n1c(C(C)N2CCN(C(=O)COc3ccc(Cl)cc3)CC2)nc2ccccc2c1=O (centres unmarked)
4. Cc1cc([C@@H](C)Nc2ccccc2C(=O)O)c2nc(N3CCOCC3)cc(=O)n2c1
5. O=C(/C=C/c1ccc(O)c(O)c1)OCCc1ccccc1

1. 0.049
2. 0.010
3. 0.157
4. 0.108
5. 0.053

Using the record for CNC(=O)c1cc(Oc2ccc(NC(=O)Nc3cc(C(C)(C)C)nn3-c3ccc4ncccc4c3)c(F)c2)ccn1 [DCC-2036 (Rebastinib)] , report its Dose.FC.LYZ.NS.
0.259

====

Tested on: ENR+CD organoids (ISC to Paneth cell differentiation)
Assay: Primary screen: basal (non-stimulated) lysozyme secretion LYZ.NS, 2.5-D 384-well ENR+CD organoid differentiation
Format: cell-based, mouse
Conditions: primary screen, dose 10.00 uM
Where a name gives a salt, the structure may show the parent alone.
Answer each item with its documented Dose.FC.LYZ.NS.
Give bare numbers, in log2 fold change.

Please review the following examples before continuing.
compound	assayTarget	quantityUnit	Dose.FC.LYZ.NS
COc1cc(Nc2ncc(F)c(Nc3ccc4c(n3)N(COP(=O)(O)O)C(=O)C(C)(C)O4)n2)cc(OC)c1OC [Fostamatinib (R788)]	ENR+CD organoids (ISC to Paneth cell differentiation)	log2 fold change	−0.234
CC(C)OC(=O)OCOP(=O)(CO[C@H](C)Cn1cnc2c(N)ncnc21)OCOC(=O)OC(C)C [Tenofovir Disoproxil Fumarate]	ENR+CD organoids (ISC to Paneth cell differentiation)	log2 fold change	−0.185

Answer for every listed entry: what is its Dose.FC.LYZ.NS? The entries follow.
1. CCOC(=O)[C@H]1O[C@@H]1C(=O)N[C@@H](CC(C)C)C(=O)NCCC(C)C
2. CCn1c2ccccc2c2cc(Nc3ccnc(NCCCN4CCOCC4)n3)ccc21
3. CC(=O)O[C@]1(C(C)=O)CC[C@H]2[C@@H]3C=C(Cl)C4=CC(=O)[C@@H]5C[C@@H]5[C@]4(C)[C@H]3CC[C@@]21C [Cyproterone Acetate]
4. CCOc1ccccc1-n1c(C(C)N2CCN(C(=O)COc3ccc(Cl)cc3)CC2)nc2ccccc2c1=O (stereo not shown)

["−0.142", "−0.203", "−0.081", "−0.015"]

Each compound below has a reported value. Please supply its Dose.FC.LYZ.NS.
1. C[C@@H]1CCN(C(=O)CC#N)C[C@@H]1N(C)c1ncnc2[nH]ccc12
2. CN(C)CCCCC(=O)Nc1ccc(NC(=S)NC(=O)c2ccc(C(C)(C)C)cc2)cc1
3. COc1cc2c(Nc3ccc(NC(=O)c4ccccc4)cc3)ncnc2cc1OCCCN1CCOCC1
4. Nc1cccc(-c2cc3c(Oc4cccc(O)c4)ncnc3[nH]2)c1
5. C=CC(=O)Nc1cccc(Nc2nc(Nc3ccc(Oc4ccnc(C(=O)NC)c4)cc3)ncc2F)c1
6. CN1CCc2cc3c(cc2[C@H]1[C@@H]1OC(=O)c2c1ccc1c2OCO1)OCO3 [(+)-Bicuculline]
7. Cc1ccc(-c2cc(C(F)(F)F)nn2-c2ccc(S(N)(=O)=O)cc2)cc1
8. NC(=O)c1cccc(-c2cccc(OC(=O)NC3CCCCC3)c2)c1

1: −0.004; 2: −0.192; 3: −0.080; 4: −0.233; 5: −0.043; 6: 0.020; 7: −0.099; 8: −0.014

Can you give me Dose.FC.LYZ.NS for all of these, one by one?
1. CCNC(=O)[C@H]1O[C@@H](n2cnc3c(N)nc(NCCc4ccc(CCC(=O)O)cc4)nc32)[C@H](O)[C@@H]1O [CGS 21680 HCl]
2. O=c1ncn2nc(Sc3ccc(F)cc3F)ccc2c1-c1c(Cl)cccc1Cl
3. C[C@H]1COC2=C1C(=O)C(=O)c1c2ccc2c1CCCC2(C)C
4. CCc1cccc2c3c([nH]c12)C(CC)(CC(=O)O)OCC3 (stereo not shown)
5. COc1ccccc1OCCNCC(O)COc1cccc2[nH]c3ccccc3c12 (stereo not shown)
6. CC1(COc2ccc3c(c2)ncn3-c2ccc3cccc(N4CCC(N)CC4)c3n2)COC1
7. C[C@@H]1C(=O)O[C@H]2C[C@@]34[C@H]5C[C@@H](C(C)(C)C)[C@]36[C@@H](OC(=O)[C@@H]6O)O[C@@]4(C(=O)O5)[C@]21O [Ginkgolide A]

1. −0.251
2. −0.006
3. −0.288
4. −0.009
5. −0.053
6. −0.224
7. 0.052

Here are 6 compounds. What values of Dose.FC.LYZ.NS were reported for them?
1. COC1CCN(C(=O)c2cc(Cc3n[nH]c(=O)c4ccccc34)ccc2F)CC1
2. COc1cc2/c(=N/c3ccc(Br)cc3F)nc[nH]c2cc1OCC1CCN(C)CC1 [Vandetanib (ZD6474)]
3. CCOc1nc2cccc(C(=O)O)c2n1Cc1ccc(-c2ccccc2-c2nnn[nH]2)cc1
4. C[C@@H](O[C@H]1OCCN(Cc2n[nH]c(=O)[nH]2)[C@H]1c1ccc(F)cc1)c1cc(C(F)(F)F)cc(C(F)(F)F)c1 [Aprepitant]
5. CCCCN1CCCCC1C(=O)Nc1c(C)cccc1C (stereo not shown) [Bupivacaine HCl]
6. COc1ccc2cccc(CCNC(C)=O)c2c1

−0.172
−0.298
−0.051
−0.090
−0.195
−0.033

# return Dose.FC.LYZ.NS for each item in the list
1. Cc1cc(C)nc(NS(=O)(=O)c2ccc(NC(=S)NC(=O)COc3ccc(Br)cc3Cl)cc2)n1
2. C=C[C@@]1(C)CC(=O)[C@]2(O)[C@@]3(C)[C@@H](O)CCC(C)(C)[C@@H]3[C@H](O)[C@H](OC(C)=O)[C@@]2(C)O1
3. C[C@@H](NCCCc1cccc(C(F)(F)F)c1)c1cccc2ccccc12 [Cinacalcet HCl]
4. Nc1nc(N)c2nc(-c3cccc(O)c3)c(-c3cccc(O)c3)nc2n1

0.015
0.219
−0.091
−0.026
